Where do these numbers come from? They come from patent EP4624497A1.

# testTarget: Thermus thermophilus phosphofructokinase TtPFK (SEQ ID NO: 1) optical probe 254/256-TtPFK-cpYFP, no mutation (Thermus thermophilus, UniProt P21777, form not given/R255N)
# Construct: the numbering corresponds to the full length of the phosphoenolpyruvate-sensitive polypeptide; His-tag
# assayNotes: phosphoenolpyruvate titration of purified optical probe (fluorescence ratio)
# appliedConditions: phosphoenolpyruvate 0 to 10 mM, purified probe treated 10 minutes, ex 420/485 nm, em 528 nm
# Protocol: • 1. […] 100 µl 1 µM of protein solution was taken, incubated at 37 °C for 10 min, phosphoenolpyruvate was added for titration, and the fluorescence intensity of 528 nm emission after 420 nm and 485 nm fluorescence excitation of the protein was measured. The fluorescence excitation and emission determination of the samples were done using a multifunctional fluorescence microplate reader. • 6. […]
measuredParameter: pKd
Quick note: pKd means taking -log10 of the concentration in moles per liter.

What measured pKd goes with C=C(OP(=O)(O)O)C(=O)O [phosphoenolpyruvate, Phosphoenolpyruvate] ?
5.67
